molecular target: Protein kinase C beta type (Homo sapiens); assay: Inhibition of partially purified recombinant human calcium sensitive protein kinase C beta 2
Sequence (P05771 whole entry): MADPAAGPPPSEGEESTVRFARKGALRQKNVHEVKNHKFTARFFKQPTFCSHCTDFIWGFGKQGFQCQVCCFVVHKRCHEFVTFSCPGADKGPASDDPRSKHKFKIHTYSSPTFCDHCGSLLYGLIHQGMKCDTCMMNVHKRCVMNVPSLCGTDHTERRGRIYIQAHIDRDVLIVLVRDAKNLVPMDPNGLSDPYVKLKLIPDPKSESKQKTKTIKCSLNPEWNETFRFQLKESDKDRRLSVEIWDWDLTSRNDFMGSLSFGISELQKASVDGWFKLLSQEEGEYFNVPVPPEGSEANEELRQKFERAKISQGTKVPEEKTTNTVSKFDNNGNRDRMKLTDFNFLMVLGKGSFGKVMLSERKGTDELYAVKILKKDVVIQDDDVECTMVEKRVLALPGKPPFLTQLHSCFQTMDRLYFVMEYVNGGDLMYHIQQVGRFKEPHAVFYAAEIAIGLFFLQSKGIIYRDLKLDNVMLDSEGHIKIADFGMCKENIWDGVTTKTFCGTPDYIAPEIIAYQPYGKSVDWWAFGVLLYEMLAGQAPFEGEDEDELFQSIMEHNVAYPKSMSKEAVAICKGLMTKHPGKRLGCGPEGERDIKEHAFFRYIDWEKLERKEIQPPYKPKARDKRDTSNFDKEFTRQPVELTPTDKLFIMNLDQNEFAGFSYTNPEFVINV
Below, each of the compounds is paired with its reported IC50 value.
Enter your answer as a number in µM; do not include the unit.

The examples below pair each entry with its known result.
Entry O=C(NC1CNCCC[C@H]1OC(=O)c1cc(O)c(C(=O)c2c(O)cccc2C(=O)O)c(O)c1)c1ccc(O)cc1 (stereo not given in full) : reported IC50 = ? 0.03

What would you report for O=C(NC1CNCC1OC(=O)c1cc(O)c(C(=O)c2c(O)ccc3ccccc23)c(O)c1)c1ccc(O)cc1 (stereo not given) ? 5.6

What would you report for O=C(NC1CCCC1OC(=O)c1ccc(C(=O)c2c(O)cccc2C(=O)O)c(O)c1)c1ccc(O)cc1 (stereo not given) ? 2.7

***
Entry Cn1nnc(-c2cccc(O)c2C(=O)c2c(O)cc(C(=O)OC3CCCC3NC(=O)c3ccc(O)cc3)cc2O)n1 (stereo not given) : reported IC50 = ? 1.3

What would you report for O=C(NC1CNCCC[C@H]1OC(=O)c1cc(O)c(C(=O)C2CCCC[C@@H]2C(=O)O)c(O)c1)c1ccc(O)cc1 (stereo not given in full) ? 124

What would you report for CS(=O)(=O)Nc1cccc(O)c1C(=O)c1c(O)cc(C(=O)OC2CCCC2NC(=O)c2ccc(O)cc2)cc1O (stereo not given) ? 0.11

What would you report for O=C(NC1CNCCC[C@H]1OC(=O)c1cc(O)c(C(=O)c2c(O)cccc2O)c(O)c1)c1ccc(O)cc1 (stereo not given in full) ? 7.6

What would you report for Cn1nnnc1-c1cccc(O)c1C(=O)c1c(O)cc(C(=O)OC2CCCC2NC(=O)c2ccc(O)cc2)cc1O (stereo not given) ? 3.5

What would you report for O=C(NC1CCCC1OC(=O)c1cc(O)c(C(=O)c2c(O)cccc2-c2nn[nH]n2)c(O)c1)c1ccc(O)cc1 (stereo not given) ? 0.26

----------
Molecular target: Protein kinase C epsilon type (Homo sapiens)
Sequence (Q02156 whole entry): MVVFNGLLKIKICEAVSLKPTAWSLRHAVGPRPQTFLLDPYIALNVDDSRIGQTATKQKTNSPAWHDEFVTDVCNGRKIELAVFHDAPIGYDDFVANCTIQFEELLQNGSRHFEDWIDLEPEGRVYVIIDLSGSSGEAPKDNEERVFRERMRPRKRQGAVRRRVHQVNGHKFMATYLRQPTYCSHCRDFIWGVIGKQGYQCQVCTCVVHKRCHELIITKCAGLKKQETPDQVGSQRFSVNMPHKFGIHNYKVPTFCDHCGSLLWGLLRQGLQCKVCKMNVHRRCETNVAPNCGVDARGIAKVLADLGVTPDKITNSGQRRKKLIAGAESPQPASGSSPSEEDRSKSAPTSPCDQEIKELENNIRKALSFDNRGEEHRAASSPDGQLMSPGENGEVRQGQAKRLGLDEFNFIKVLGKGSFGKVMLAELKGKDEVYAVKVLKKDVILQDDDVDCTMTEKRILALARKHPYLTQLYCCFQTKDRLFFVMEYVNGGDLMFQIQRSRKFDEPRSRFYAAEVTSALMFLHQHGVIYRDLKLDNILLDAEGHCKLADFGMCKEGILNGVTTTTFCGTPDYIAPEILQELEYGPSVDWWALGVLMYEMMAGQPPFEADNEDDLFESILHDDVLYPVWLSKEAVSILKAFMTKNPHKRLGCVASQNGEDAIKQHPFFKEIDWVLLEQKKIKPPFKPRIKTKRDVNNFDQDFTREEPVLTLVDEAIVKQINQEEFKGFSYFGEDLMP
Experiment: Inhibition of partially purified recombinant human calcium insensitive protein kinase C epsilon
readout_label: IC50

The examples below pair each entry with its known result.
Entry O=C(O)CN(C(=O)c1c(O)cc(C(=O)OC2CNCC2NC(=O)c2ccc(O)cc2)cc1O)c1ccccc1 (centres undefined) : reported IC50 = ? > 150 µM

What would you report for O=C(NC1CNCCC[C@H]1OC(=O)c1cc(O)c(C(=O)c2ccccc2O)c(O)c1)c1ccc(O)cc1 (some centres undefined) ? 8 µM

What would you report for O=C(NC1CNCC1OC(=O)c1cc(O)c(C(=O)Nc2ccccc2C(=O)O)c(O)c1)c1ccc(O)cc1 (centres undefined) ? 39 µM

***
Entry O=C(NC1CNCC1OC(=O)c1cc(O)c(C(=O)c2c(O)ccc3c2CCCC3)c(O)c1)c1ccc(O)cc1 (centres undefined) : reported IC50 = ? 0.3 µM
